Molecular target: recombinant human PAI-1 (Homo sapiens)
Construct: purchased Molecular Innovations, Inc
Sequence (P05121 24-402): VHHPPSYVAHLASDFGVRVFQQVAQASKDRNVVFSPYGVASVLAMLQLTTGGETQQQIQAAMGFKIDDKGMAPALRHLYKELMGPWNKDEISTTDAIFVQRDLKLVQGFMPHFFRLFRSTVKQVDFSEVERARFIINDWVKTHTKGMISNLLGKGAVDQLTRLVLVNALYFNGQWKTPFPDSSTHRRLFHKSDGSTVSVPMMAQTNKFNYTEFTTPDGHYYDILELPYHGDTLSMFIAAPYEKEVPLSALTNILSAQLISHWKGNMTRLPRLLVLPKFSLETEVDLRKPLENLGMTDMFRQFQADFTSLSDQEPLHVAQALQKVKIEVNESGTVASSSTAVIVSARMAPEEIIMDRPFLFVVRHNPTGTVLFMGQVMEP
Test: Test Example 1: human PAI-1 inhibitory activity (tPA fluorogenic substrate, pH 7.5 Tris buffer)
Assay type: biochemical
Details: Compound Concentration 25 μM; Tris buffer
Record form. Attribute: Inhibition Rate of PAI-1 Activity (%). Fill in for each entry.
Enter your answer as a number in %; do not include the unit.

The reported Inhibition Rate of PAI-1 Activity (%) of the compound CC(C)(C)c1ccc(CN(C(=O)C(=O)O)c2ccc(OCc3ccc(OC(F)(F)F)cc3)cc2)cc1 [Compound 616] was 96

Value of Inhibition Rate of PAI-1 Activity (%) reported for the compound CCCOc1ccc(N(CCCCc2ccccc2)C(=O)C(=O)O)cc1-c1ccc(OC(F)(F)F)cc1 [Compound 240] is 95

For reference, reported Inhibition Rate of PAI-1 Activity (%) for CC(C)(C)CN(C(=O)C(=O)O)c1ccc(-c2ccc(OC(F)(F)F)cc2)cc1 [Compound 255] stands at 23

Consider CC(C)(C)c1ccc(CN(C(=O)C(=O)O)c2ccc(C(F)(F)F)cc2-c2ccc(OC(F)(F)F)cc2)cc1 [Compound 169] . Its measured Inhibition Rate of PAI-1 Activity (%) is 84
